- Assay protocol: Drug-drug interaction study: bardoxolone methyl alone and with itraconazole in healthy volunteers
- Particulars: human, plasma, oral, AUC0-∞, Geom. Mean, Bardoxolone Methyl + Itraconazole (B), paired analysis n = 15
Endpoint name: AUC(0-inf) (ng·h/mL)
Give bare numbers, in ng·h/mL.

// query Identify the reported AUC(0-inf) for the following entry. `COC(=O)[C@]12CCC(C)(C)C[C@H]1[C@H]1C(=O)C=C3[C@@]4(C)C=C(C#N)C(=O)C(C)(C)[C@@H]4CC[C@@]3(C)[C@]1(C)CC2`
// result 241

----------
- Assay protocol: Drug-drug interaction study: bardoxolone methyl alone and with itraconazole in healthy volunteers
- Particulars: human, plasma, po, 10 mg, tmax, Median, Period 1: single oral 10 mg bardoxolone methyl alone, fasted, plasma, n = 16
Endpoint name: Tmax (h)
Give bare numbers, in h.

// query Please give measured Tmax of the following entry: COC(=O)[C@]12CCC(C)(C)C[C@H]1[C@H]1C(=O)C=C3[C@@]4(C)C=C(C#N)C(=O)C(C)(C)[C@@H]4CC[C@@]3(C)[C@]1(C)CC2 [Bardoxolone methyl]
// result 2.5
